Hey, just so you know, these numbers are from paper PMC8809517.

For each of the binders below, state its pKd.
# MEASURED_ON: T1, GFP-9S library array, motif 4 ND N98A;D124Y (synthetic construct, N98A;D124Y)
# T1 chain: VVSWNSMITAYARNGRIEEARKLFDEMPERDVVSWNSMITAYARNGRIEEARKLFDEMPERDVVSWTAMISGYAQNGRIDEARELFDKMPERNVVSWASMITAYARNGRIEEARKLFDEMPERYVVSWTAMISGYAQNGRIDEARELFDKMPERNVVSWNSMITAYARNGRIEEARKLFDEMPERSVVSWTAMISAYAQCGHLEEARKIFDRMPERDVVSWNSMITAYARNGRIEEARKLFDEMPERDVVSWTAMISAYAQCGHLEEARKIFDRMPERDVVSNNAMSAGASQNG
# ASSAY_NAME: high-throughput RNA pulldown from lysate on Ni-NTA beads; HRP: 50 mM Tris pH 8, 150 mM NaCl, 1 mM beta-mercaptoethanol, 50 ug/ml BSA, 3 ug/ml yeast RNA, 0.5% heparin; ITC and FP: Tris pH 8, 200 mM KCl, 5% glycerol; MST: 50 mM Tris pH 8, 200 mM NaCl, 1 mM DTT, BSA, heparin, 0.05% Tween 20
# CONDITION_INFO: tags: N-terminal His-eGFP; label: 5' Cy5
The meaning of pKd here: minus log10 of the concentration in molar units.

Problem: For the binder AUUAGACGUGA (ssRNA) [Cy5-rpoA-G] , what pKd is on record?
Solution: 7.16

Problem: For the binder AUUACACGUGA (ssRNA) [Cy5-rpoA] , what pKd is on record?
Solution: 7.08
